# measured_on: T1, human TIM-3 protein with hFc tag (hTIM-3-hFc protein) (human, UniProt Q8TDQ0 22-200)
# T1 construct: also called immunogen 1; human TIM-3 extracellular domain protein; not shown: human IgG Fc fragment (hFc) of the pCpC vector
# T1 sequence: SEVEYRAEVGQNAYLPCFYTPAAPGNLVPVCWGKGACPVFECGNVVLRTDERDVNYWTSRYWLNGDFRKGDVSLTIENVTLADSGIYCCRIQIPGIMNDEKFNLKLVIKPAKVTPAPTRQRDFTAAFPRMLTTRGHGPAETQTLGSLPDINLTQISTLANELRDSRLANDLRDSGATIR
# measurement_description: ELISA, coated hTIM-3-hFc; antibody 0.0007 nM
parameter_measured: OD450
The answer should be a number; do not append a unit.

Worked cases, answers included:
- binder: "134H3G6 (TIM-3 antibody purified from hybridoma, chimeric antibody of Example 2) (antibody, V domains shown, From hybridoma of Harbour H2L2 transgenic mice: human variable regions, rat constant regions) VH: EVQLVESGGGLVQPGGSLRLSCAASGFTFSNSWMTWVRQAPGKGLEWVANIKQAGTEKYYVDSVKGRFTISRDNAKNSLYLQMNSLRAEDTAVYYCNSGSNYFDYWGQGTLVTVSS VL: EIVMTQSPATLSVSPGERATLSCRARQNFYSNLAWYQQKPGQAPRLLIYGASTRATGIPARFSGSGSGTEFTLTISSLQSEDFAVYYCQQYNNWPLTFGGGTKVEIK"
  OD450: 0.13
- binder: "18D2H2 (TIM-3 antibody purified from hybridoma, chimeric antibody of Example 2) (antibody, V domains shown, From hybridoma of Harbour H2L2 transgenic mice: human variable regions, rat constant regions) VH: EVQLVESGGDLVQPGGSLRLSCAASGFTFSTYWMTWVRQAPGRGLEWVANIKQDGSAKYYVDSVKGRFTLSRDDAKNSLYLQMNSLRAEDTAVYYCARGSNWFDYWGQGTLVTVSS VL: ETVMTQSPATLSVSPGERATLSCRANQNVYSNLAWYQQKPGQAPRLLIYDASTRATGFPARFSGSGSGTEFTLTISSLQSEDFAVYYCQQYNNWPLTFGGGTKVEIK"
  OD450: 0.12
- binder: "57F4E5 (TIM-3 antibody purified from hybridoma, chimeric antibody of Example 2) (antibody, V domains shown, From hybridoma of Harbour H2L2 transgenic mice: human variable regions, rat constant regions) VH: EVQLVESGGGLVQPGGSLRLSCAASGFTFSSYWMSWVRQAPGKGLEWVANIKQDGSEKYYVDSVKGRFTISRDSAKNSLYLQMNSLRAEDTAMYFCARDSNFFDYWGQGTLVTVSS VL: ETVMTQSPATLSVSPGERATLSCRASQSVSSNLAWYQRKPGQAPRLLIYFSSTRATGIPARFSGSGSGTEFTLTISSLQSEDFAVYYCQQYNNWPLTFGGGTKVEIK"
  OD450: 0.19
- binder: "7A4F10 (TIM-3 antibody purified from hybridoma, chimeric antibody of Example 2) (antibody, V domains shown, From hybridoma of Harbour H2L2 transgenic mice: human variable regions, rat constant regions) VH: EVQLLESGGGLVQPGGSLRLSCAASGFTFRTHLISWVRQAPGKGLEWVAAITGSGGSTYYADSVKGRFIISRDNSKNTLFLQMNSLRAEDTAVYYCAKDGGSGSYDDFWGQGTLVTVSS VL: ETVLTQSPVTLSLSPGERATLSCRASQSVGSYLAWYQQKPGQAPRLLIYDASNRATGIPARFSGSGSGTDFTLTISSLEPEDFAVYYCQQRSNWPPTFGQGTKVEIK"
  OD450: 0.12

OD450 in this record for 34B6D8 (TIM-3 antibody purified from hybridoma, chimeric antibody of Example 2) (antibody, V domains shown, From hybridoma of Harbour H2L2 transgenic mice: human variable regions, rat constant regions) VH: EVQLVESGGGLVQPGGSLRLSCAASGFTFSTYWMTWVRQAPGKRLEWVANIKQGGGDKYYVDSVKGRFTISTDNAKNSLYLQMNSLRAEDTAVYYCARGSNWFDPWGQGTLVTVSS VL: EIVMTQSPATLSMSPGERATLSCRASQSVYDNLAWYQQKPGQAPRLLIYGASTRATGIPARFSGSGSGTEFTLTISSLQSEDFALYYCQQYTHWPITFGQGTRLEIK : 0.15

Looking up 39E5H1 (TIM-3 antibody purified from hybridoma, chimeric antibody of Example 2) (antibody, V domains shown, From hybridoma of Harbour H2L2 transgenic mice: human variable regions, rat constant regions) VH: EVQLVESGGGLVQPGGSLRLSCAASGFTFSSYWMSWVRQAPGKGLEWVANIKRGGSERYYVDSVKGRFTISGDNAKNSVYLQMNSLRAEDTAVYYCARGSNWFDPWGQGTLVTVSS VL: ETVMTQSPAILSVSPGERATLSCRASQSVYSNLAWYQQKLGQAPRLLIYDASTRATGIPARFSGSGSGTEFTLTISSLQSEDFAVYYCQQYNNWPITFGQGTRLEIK , I see its OD450 listed as 0.16
